# System: HL-60(TB) leukemia
# methodDescription: NCI-60 one-dose screen, 48 h (100 = growth as untreated, 0 = no growth, -100 = all killed)
# assayConditions: 10 µM unless noted
The panel holds about 83,000 compounds, 20% with a hit somewhere; the sample as a whole holds those more often.
Catalogue of compounds with associated growth
State the answer as a number, implicitly in %.

For orientation, consider the following solved cases.
1. CCCNC(=O)Nc1ccc2cc3ccc(NC(=O)NCCC)cc3nc2c1	74.9
2. CN(C)CCNc1nc2ccccc2c2c(=O)c3ccccc3sc12	9.19
3. Cc1ccc(C(=O)N2C/C(=C/c3ccccc3)C(=O)/C(=C/c3ccccc3)C2)cc1	73.7
4. COc1cc(NC(C)CCCNC(C)C)c2ncccc2c1OC (configuration not stated)	10.6
5. COc1cc(-c2nc(SCC(C)C)nc(Nc3cccc4ccccc34)c2C#N)cc(OC)c1OC	79.1

The record that follows has no growth shown yet.
Briefly, growth measured for O=S(=O)(NCCNc1cc(-c2cn(-c3ccccc3)nc2-c2cccc(O)c2)ccn1)c1cccc(F)c1 : 27.4
